Each recorded value in this set is attributed to the supplement of paper PMC10567573.

B1: TRIM35 (parent)
chain: PTCPVCKDRASPADLRTNHTLNNL

Variants of: B1
Assay Details: protein stability index of a GFP-peptide fusion (GPS, HEK-293T) (PSI 1-6); higher = more stable;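 further: lentivirally expressed fusions sorted by FACS into six bins by GFP to DsRed ratio, PSI derived from sequencing read proportions per bin multiplied by bin number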
Run Conditions: c terminus: a fixed tail appended
Given measured protein stability index, output true (1) if it is greater than or equal to 3 and false (0) if not.

PTCPTCKDRASPADLRTNHTLNNL [V5T]    true (1)
PTCPVCKDRASAADLRTNHTLNNL [P12A]    false (0)

Q: Form field: protein stability index at least 3? Entry: PTCPFCKDRASPADLRTNHTLNNL [V5F]
Ans: false (0)

Q: Form field: protein stability index at least 3? Entry: PFCPVCKDRASPADLRTNHTLNNL [T2F]
Ans: false (0)

Q: Form field: protein stability index at least 3? Entry: PQCPVCKDRASPADLRTNHTLNNL [T2Q]
Ans: true (1)
